# System: UO-31 renal
# protocol: NCI-60 one-dose screen, 48 h (100 = growth as untreated, 0 = no growth, -100 = all killed)
# condition.info: 10 µM unless noted
The panel holds about 83,000 compounds, 20% with a hit somewhere; the sample as a whole holds those more often.
So I've got a bunch of compounds here, and I need their growth values.
Numbers only, in %.

I have 2 compounds here; please give me growth for each one.
1. Cc1ccc(N(CSc2ccc(Cl)cc2)CSc2ccc(Cl)cc2)cc1
2. C=CC[P+](c1ccccc1)(c1ccccc1)c1ccccc1

**Result**
1: 22.1; 2: 99.7

---

# Test system: SK-MEL-28 melanoma
# protocol: NCI-60 one-dose screen, 48 h (100 = growth as untreated, 0 = no growth, -100 = all killed)
# condition.info: 10 µM unless noted
Compounds without any hit were thinned out: in the full panel of roughly 83,000, 20% have a hit.
Give criterion met when the value for growth is at least 70%. Give criterion not met when it is less.

O=C(CCCCCCC(=O)Nc1ccc2c(c1)/C(=C/c1ccc[nH]1)C(=O)N2)NO    criterion not met

**Query** In plain terms: is recorded growth at least 70% for COc1ccc(S(=O)(=O)c2ccc(C(N)=O)cc2)cc1NC(=O)c1[nH]c(C)c2c1CCCCC2=O ?
**Result** criterion not met

**Query** Check CCCCC(=O)N/N=C/c1cc(I)cc(I)c1O too.
**Result** criterion not met

**Query** Quick one: NC(=O)c1cc(I)ccc1NC(=O)COc1ccc(Cl)cc1Cl
**Result** criterion met

**Query** Again, but for O=C(Nc1ccc(Cl)c(Cl)c1)OCn1ncc2ccc([N+](=O)[O-])cc21
**Result** criterion met

---

# Test system: MCF7 breast
# protocol: NCI-60 one-dose screen, 48 h (100 = growth as untreated, 0 = no growth, -100 = all killed)
# condition.info: 10 µM unless noted
The panel holds about 83,000 compounds, 20% with a hit somewhere; the sample as a whole holds those more often.
quantity: growth (%)
One number for each entry, in %.

// for each molecule in input: emit growth
1. CCCCCCCC/C=C\CCCCCCCCOc1cccc(CC(=O)NCC[N+]2(C)CCOCC2)c1
2. O=c1oc2ccccc2cc1-c1csc(N/N=C/c2cc3ccccc3nc2Cl)n1

**Result**
1: 83.8; 2: 90.7

---

# Test system: MCF7 breast
# protocol: NCI-60 one-dose screen, 48 h
# condition.info: 10 µM unless noted
Compounds without any hit were thinned out: in the full panel of roughly 83,000, 20% have a hit. Activity calls are given as the source filed them. Rule for the calls: active = growth percent below 10; inactive = the rest.
Can you answer with just one of these options? active, inactive

Record excerpt, results attached:
COc1ccc(-c2nc3sc(C)cn3c2/C=C/C(=O)c2cc(OC)c(OC)c(OC)c2)cc1    inactive
COc1cc(CNCCN2C(=O)c3ccc4c5c(ccc(c35)C2=O)C(=O)N(CCNCc2cc(OC)c(OC)c(OC)c2)C4=O)cc(OC)c1OC    active
Cc1ccc2nc(NC(=O)CSC(=S)N3CCN(C)CC3)sc2c1    inactive
O=C(N/N=C/c1ccc(OC(F)F)c(OC2CCCC2)c1)c1cnn2c1NC(c1ccccc1)C2 (stereo not given)    inactive
CCC(=O)Nc1nnc(Cc2ccc(OC)c(OC)c2)s1    inactive

**Query** For this molecule, state the assay outcome: CC1CCCCN1S(=O)(=O)c1ccc(CN=C=S)cc1 (stereo not given)
**Result** inactive

**Query** Repeat for the following molecule: COc1cc(/C=C2\C(=O)Nc3ccccc32)cc(OC)c1O
**Result** inactive

**Query** Now the molecule O=C(C[Si](CC(=O)c1cccc(C(F)(F)F)c1)CC(=O)c1cccc(C(F)(F)F)c1)c1cccc(C(F)(F)F)c1
**Result** inactive

**Query** Same lookup for Cn1c2c(cc(S(=O)(=O)c3ccccc3)c1=O)CCc1c-2cnn1-c1ccccc1Cl , please.
**Result** inactive

**Query** Repeat with O=C1C(OCCOc2ccccc2)=C(OCCOc2ccccc2)C(=O)c2ccccc21
**Result** inactive

**Query** // same read-out, input: COCCOC1=C(Cl)C(=O)c2ccccc2C1=O
**Result** inactive

**Query** Ok, now CCN1CCN(c2ccc(Nc3ncc4ccc5ncn(C(C)C)c5c4n3)nc2)CC1
**Result** active

**Query** Entry to check: c1ccc(-c2n(Cc3ccc4ccccc4c3)c3ccccc3[n+]2Cc2ccc3ccccc3c2)cc1
**Result** active

**Query** What do you have for NS(=O)(=O)c1ccc(C(=O)N/N=C(\CS(=O)(=O)c2ccccc2)c2cc3cc(Br)ccc3o2)cc1 ?
**Result** inactive

**Query** Would you kindly repeat that for Cc1ccccc1-n1nnc(C(=O)Nc2nc(-c3ccccc3)c(-c3ccccc3)s2)c1C ?
**Result** inactive

**Query** Another molecule: O=c1c2c(=NCCN3CCCC3)cc3c(=O)n(CCCN4CCOCC4)c(=O)c4c(-c5ccc(CN6CCCC6)cc5)cc(c(O)n1CCCN1CCOCC1)c2c4-3
**Result** active

**Query** Next up: O=C1/C(=C/c2ccccc2F)CNC/C1=C\c1ccccc1F
**Result** active

**Query** Next molecule: Cc1nc(-c2ccccc2)cc2c(O)c(C(=O)N/N=C/Cc3ccccc3)[nH]c(=O)c12
**Result** inactive

**Query** Okay, and O=C(N/N=C(\CS(=O)(=O)c1ccccc1)c1cc2ccccc2oc1=O)c1ccccc1 ?
**Result** inactive

**Query** Entry to check: COC(=O)C1C2CC3c4[nH]c5cc(OC)ccc5c4CCN3CC2CC(OC2CCCCO2)C1OC (stereo not given)
**Result** inactive
